- System name: Cellular tumor antigen p53 (Homo sapiens) (UniProt P04637)
- Sequence (P04637 whole entry, looked up): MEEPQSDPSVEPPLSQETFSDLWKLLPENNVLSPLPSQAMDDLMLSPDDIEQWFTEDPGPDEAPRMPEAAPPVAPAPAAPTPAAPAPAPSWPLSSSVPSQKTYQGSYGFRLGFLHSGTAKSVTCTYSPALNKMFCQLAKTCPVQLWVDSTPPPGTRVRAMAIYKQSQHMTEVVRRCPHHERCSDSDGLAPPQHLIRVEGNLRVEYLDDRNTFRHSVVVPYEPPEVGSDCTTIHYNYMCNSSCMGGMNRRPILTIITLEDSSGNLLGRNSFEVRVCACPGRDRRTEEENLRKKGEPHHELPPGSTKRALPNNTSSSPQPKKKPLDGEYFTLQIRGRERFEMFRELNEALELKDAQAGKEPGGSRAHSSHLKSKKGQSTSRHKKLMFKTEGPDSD
- Assay text: Primary qHTS for small molecule compounds that upregulate eGFP-tagged delta133p53alpha (in N-terminal) cells. (AID 2060322);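 further: cells pre-induced with doxycycline then dosed without doxycycline; series mostly up to about 56 µM; 0% = DMSO vehicle and 100% = reference activator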
- Condition info: NCI-H358 eGFP-delta133p53alpha fluorescence, 24 h; stronger effect = higher value
- Excerpt: Assay Development and Screening Technology National Center for Advancing Translational Sciences (NCATS), National Institute of Health (NIH), Rockville, Maryland Cellular senescence (CS) is one of the hallmarks of aging and age-related diseases. […] Here we report the development and validation of a cell-based quantitative high throughput screening (qHTS) assay in 1,536-well format. […]
Inconclusive results are not listed.

# Compound, Unit info, activation
measured = [
    ("COC(=O)C1=CO[C@@H](O[C@@H]2O[C@H](CO)[C@@H](O)[C@H](O)[C@H]2O)[C@@H]2C(C)CC(=O)[C@]12O (stereo not given in full)", "%", 1.79),
    ("CC1C(=O)CC2C3CCC(C(=O)O)C12CC3(C)CO (stereo not given)", "%", 9.92),
    ("CCNC(=O)[C@H]1O[C@H](n2cnc3c(NCC(c4ccccc4)c4ccccc4)nc(C(=O)NCCNC(=O)NC4CCN(c5ccccn5)CC4)nc32)[C@H](O)[C@@H]1O", "%", -9.55),
    ("COc1ccc(Br)cc1S(=O)(=O)NC(=O)/C=C/c1ccccc1Cc1ccc2ccccc2c1", "%", -15.8),
    ("C[C@@H]1C[C@H]2[C@@H]3CCC4=CC(=O)C=C[C@]4(C)[C@@]3(F)[C@@H](O)C[C@]2(C)[C@@]1(O)C(=O)CO", "%", -11.9),
    ("C/C(=C\\CO[C@@H]1O[C@H](CO[C@H]2OC[C@](O)(CO)[C@H]2O)[C@@H](O)[C@H](O)[C@H]1O)C(C)(C)O", "%", -5.34),
    ("Nc1nc2ncc(CNc3ccc(C(=O)N[C@@H](CCC(=O)O)C(=O)O)cc3)nc2c(=O)[nH]1", "%", -10),
    ("CC[C@H]1OC(=O)[C@H](C)[C@@H](O[C@H]2C[C@@](C)(OC)[C@@H](O)[C@H](C)O2)[C@H](C)[C@@H](O[C@@H]2O[C@H](C)C[C@H](N(C)C)[C@@H]2O)[C@](C)(OC)C[C@@H](C)C(=O)[C@H](C)[C@@H](O)[C@]1(C)O", "%", -25.1),
    ("C[C@@H]1C(=O)O[C@H]2CC34[C@H]5C[C@@H](C(C)(C)C)C36[C@@H](OC(=O)[C@@H]6O)OC4(C(=O)O5)[C@]21O (stereo not given in full)", "%", -10),
    ("N=C(N)c1ccc(N)cc1", "%", -28.3),
]

Values were extracted from PubChem BioAssay (NCATS).
